Hello, the source for this data is patent US10399940B2, in case you need it.

# TESTED TARGET: F508delCFTR (Homo sapiens, UniProt P13569, DEL508-508)
# Construct: expressed in transfected cells; host or cells: CFBE41o- (human lung derived epithelial cell line), doxycycline-inducible expression
# Sequence (P13569 with tags, fused parts or gaps DEL508-508): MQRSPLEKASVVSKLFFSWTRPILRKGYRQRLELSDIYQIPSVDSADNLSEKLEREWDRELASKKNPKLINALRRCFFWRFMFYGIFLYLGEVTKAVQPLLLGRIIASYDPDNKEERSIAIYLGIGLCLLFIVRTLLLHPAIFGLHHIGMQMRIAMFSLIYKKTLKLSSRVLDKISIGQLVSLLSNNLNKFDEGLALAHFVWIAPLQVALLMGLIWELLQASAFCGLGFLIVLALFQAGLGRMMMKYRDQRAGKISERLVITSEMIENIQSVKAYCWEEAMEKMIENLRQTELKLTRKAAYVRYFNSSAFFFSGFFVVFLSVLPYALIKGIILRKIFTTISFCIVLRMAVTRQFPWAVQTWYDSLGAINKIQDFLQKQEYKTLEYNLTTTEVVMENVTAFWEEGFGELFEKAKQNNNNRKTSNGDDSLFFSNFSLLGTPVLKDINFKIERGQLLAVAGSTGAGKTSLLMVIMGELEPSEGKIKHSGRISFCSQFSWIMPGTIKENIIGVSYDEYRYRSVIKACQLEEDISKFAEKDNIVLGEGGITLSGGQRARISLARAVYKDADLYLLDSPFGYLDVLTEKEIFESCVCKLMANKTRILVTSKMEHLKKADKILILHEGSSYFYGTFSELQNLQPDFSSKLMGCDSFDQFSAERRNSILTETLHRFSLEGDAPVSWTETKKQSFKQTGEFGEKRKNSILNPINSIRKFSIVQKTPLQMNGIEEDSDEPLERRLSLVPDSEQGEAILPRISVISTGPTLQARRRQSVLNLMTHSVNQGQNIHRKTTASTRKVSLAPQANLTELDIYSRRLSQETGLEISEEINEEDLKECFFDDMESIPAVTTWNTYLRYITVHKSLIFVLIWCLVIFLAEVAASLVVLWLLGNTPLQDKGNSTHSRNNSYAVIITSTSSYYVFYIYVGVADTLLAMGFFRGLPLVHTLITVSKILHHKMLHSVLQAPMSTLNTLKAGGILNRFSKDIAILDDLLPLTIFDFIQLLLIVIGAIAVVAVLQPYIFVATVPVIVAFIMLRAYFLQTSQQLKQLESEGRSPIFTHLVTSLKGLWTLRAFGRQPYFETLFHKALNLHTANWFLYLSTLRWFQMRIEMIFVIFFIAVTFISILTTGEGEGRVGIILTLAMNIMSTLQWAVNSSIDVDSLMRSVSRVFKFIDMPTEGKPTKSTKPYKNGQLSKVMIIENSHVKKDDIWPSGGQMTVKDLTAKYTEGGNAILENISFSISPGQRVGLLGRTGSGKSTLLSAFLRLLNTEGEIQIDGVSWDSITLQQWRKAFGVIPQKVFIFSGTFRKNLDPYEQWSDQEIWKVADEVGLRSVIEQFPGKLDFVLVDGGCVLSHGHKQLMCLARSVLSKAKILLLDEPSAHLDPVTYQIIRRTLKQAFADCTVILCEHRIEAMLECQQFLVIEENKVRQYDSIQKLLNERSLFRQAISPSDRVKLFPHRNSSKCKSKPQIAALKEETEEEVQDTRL
# METHOD NOTES: Cell Surface Expression-Horse Radish Peroxidase (CSE-HRP) assay
# Format: cell-based
# CONDITION CONTEXT: CFBE41o-F508delCFTR-HRP cells; with co-corrector (2 μM of 3-[(2R,4R)-4-({[1-(2,2-difluoro-1,3-benzodioxol-5-yl)cyclopropyl]carbonyl}amino)-7-methoxy-3,4-dihydro-2H-chromen-2-yl]benzoic acid); read-out: EC50 (with co-corrector)
QUANTITY NAME: EC50

Qu. // EC50 lookup, key: COc1ncc(C(F)(F)F)cc1CO[C@H]1[C@H](C(C)(C)C)[C@@H](C(=O)O)N(C(=O)[C@@H]2CCCCO2)[C@H]1c1ccccc1C1CC1 [Example 128]
Ans. < 1000 nM

Qu. Now try COc1ncc(C2(C)CC2)cc1CO[C@H]1[C@H](C(C)(C)C)[C@@H](C(=O)O)N(C(=O)[C@@H]2CCCCO2)[C@H]1c1ccccc1C [Example 243] .
Ans. < 1000 nM

Qu. Next entry: COc1ncc(C2CCCC2)cc1CO[C@H]1[C@H](C(C)(C)C)[C@@H](C(=O)O)N(C(=O)OC(C)C)[C@H]1c1ccccc1 [Example 44]
Ans. 1000 to 10000 nM

Qu. Same lookup for COc1ncc(C(F)(F)F)cc1CO[C@@H]1[C@H](C(C)(C)C)[C@@H](C(=O)O)N(C(=O)C2CCCC2)[C@H]1c1cccnc1OC(C)C [Example 163] , please.
Ans. > 10000 nM

Qu. Record: COc1ncc(C(F)(F)F)cc1C#CCO[C@H]1[C@H](C(C)(C)C)[C@@H](C(=O)O)N(C(=O)OC(C)C)[C@H]1c1ccccc1 [Example 277]
Ans. < 1000 nM

Qu. Field entry: COc1ncc(C(F)(F)F)cc1CO[C@H]1[C@H](C(C)(C)C)[C@@H](C(=O)O)N(C(=O)[C@@H]2CCCCO2)[C@H]1c1ccccc1-c1ccccc1 [Example 180]
Ans. < 1000 nM

====

# TESTED TARGET: F508delCFTR (Homo sapiens, UniProt P13569, DEL508-508)
# Construct: expressed in transfected cells; host or cells: CFBE41o- (human lung derived epithelial cell line), doxycycline-inducible expression
# METHOD NOTES: Cell Surface Expression-Horse Radish Peroxidase (CSE-HRP) assay;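 for Maximum % activity (without co-corrector): % of on-plate positive control (2 µM of the co-corrector compound) after DMSO subtraction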
# Type: cell-based
# CONDITION CONTEXT: CFBE41o-F508delCFTR-HRP cells; without co-corrector; normalized to on-plate positive control; highest concentration 20 μM
QUANTITY NAME: Maximum % activity (without co-corrector)

>  <MOLECULE>
COc1ncc(C2CC2)cc1CO[C@H]1[C@H](C(C)(C)C)[C@@H](C(=O)O)N(C(=O)[C@@H]2CCCCO2)[C@H]1c1ccccc1C

>  <TESTED TARGET>
F508delCFTR (Homo sapiens, UniProt P13569, DEL508-508)

>  <RESULT>
+++ (≥200)

$$$$
>  <MOLECULE>
COc1ncc(C(F)(F)F)cc1CO[C@H]1[C@H](C(C)(C)C)[C@@H](C(=O)O)N(C(=O)OC(C)C)[C@H]1c1cccc(C(C)(C)C)c1

>  <TESTED TARGET>
F508delCFTR (Homo sapiens, UniProt P13569, DEL508-508)

>  <RESULT>
+ (<100)

$$$$
>  <MOLECULE>
CC(C)Oc1ncccc1[C@H]1[C@@H](OCc2cc3cc(C4CCC4)ccc3o2)[C@H](C(C)(C)C)[C@@H](C(=O)O)N1C(=O)[C@@H]1CCCCO1

>  <TESTED TARGET>
F508delCFTR (Homo sapiens, UniProt P13569, DEL508-508)

>  <RESULT>
+ (<100)

$$$$
>  <MOLECULE>
COc1ncc(N2CCCC2)cc1CO[C@H]1[C@H](C(C)(C)C)[C@@H](C(=O)O)N(C(=O)OC(C)C)[C@H]1c1ccccc1

>  <TESTED TARGET>
F508delCFTR (Homo sapiens, UniProt P13569, DEL508-508)

>  <RESULT>
+ (<100)

$$$$
>  <MOLECULE>
COc1ncc(C(F)(F)F)cc1CO[C@H]1[C@H](C(C)(C)C)[C@@H](C(=O)O)N(C(=O)[C@@H]2CCCO2)[C@H]1c1cccc(C2CCC2)c1

>  <TESTED TARGET>
F508delCFTR (Homo sapiens, UniProt P13569, DEL508-508)

>  <RESULT>
+ (<100)

$$$$
>  <MOLECULE>
COc1ncc(C(F)(F)F)cc1CO[C@H]1[C@H](C(C)(C)C)[C@@H](C(=O)O)N(C(=O)[C@@H]2CCCCO2)[C@H]1c1ccccc1-c1ccccc1Cl

>  <TESTED TARGET>
F508delCFTR (Homo sapiens, UniProt P13569, DEL508-508)

>  <RESULT>
+++ (≥200)

$$$$
>  <MOLECULE>
COc1ncc(C2CCC2)cc1CO[C@H]1[C@H](C(C)(C)C)[C@@H](C(=O)O)N(C(=O)OC(C)C)[C@H]1c1ccccc1Br

>  <TESTED TARGET>
F508delCFTR (Homo sapiens, UniProt P13569, DEL508-508)

>  <RESULT>
++ (≥100 and <200)

$$$$
>  <MOLECULE>
COc1ncc(C(F)(F)F)cc1CO[C@H]1[C@H](C(C)(C)C)[C@@H](C(=O)O)N(C(=O)[C@@H]2CCCO2)[C@H]1c1ccccc1C

>  <TESTED TARGET>
F508delCFTR (Homo sapiens, UniProt P13569, DEL508-508)

>  <RESULT>
++ (≥100 and <200)

$$$$
>  <MOLECULE>
COc1ncc(C(F)(F)F)cc1CO[C@@H]1[C@@H](C(C)(C)C)[C@H](C(=O)O)N(C(=O)C2CCCCC2)[C@@H]1c1ccccc1 (racemic)

>  <TESTED TARGET>
F508delCFTR (Homo sapiens, UniProt P13569, DEL508-508)

>  <RESULT>
++ (≥100 and <200)

$$$$
>  <MOLECULE>
COc1ccc(OC(F)(F)F)cc1CO[C@H]1[C@H](C(C)(C)C)[C@@H](C(=O)O)N(C(=O)[C@@H]2CCCCO2)[C@H]1c1ccccc1C

>  <TESTED TARGET>
F508delCFTR (Homo sapiens, UniProt P13569, DEL508-508)

>  <RESULT>
+++ (≥200)

$$$$

Qu. Need Maximum % activity (without co-corrector) of "COc1ncc(C2CCC2)cc1CO[C@H]1[C@H](C(C)(C)C)[C@@H](C(=O)O)N(C(=O)C2CCCCC2)[C@H]1c1cccc2c1OC(C)(C)C2" , thanks.
Ans. + (<100)

Qu. Do the same for "COc1ncc(C2CCC2)cc1CO[C@H]1[C@H](C(C)(C)C)[C@@H](C(=O)O)N(C(=O)O[C@H](C)C(F)(F)F)[C@H]1c1cccnc1OC(C)C" please
Ans. ++ (≥100 and <200)

Qu. And "COc1ncc(C(F)(F)F)cc1CO[C@H]1[C@H](C(C)(C)C)[C@@H](C(=O)O)N(C(=O)OC(C)C)[C@H]1c1c(F)cccc1F" ?
Ans. + (<100)

Qu. Try this molecule too: "COc1ncc(C2CCC2)cc1CO[C@H]1[C@H](C(C)(C)C)[C@@H](C(=O)O)N(C(=O)C2CCOCC2)[C@H]1c1ccccc1C1CC1"
Ans. ++ (≥100 and <200)

Qu. Please do the same for "COc1ncc(C2CCC2)cc1CO[C@H]1[C@H](C(C)(C)C)[C@@H](C(=O)O)N(C(=O)OC(C)C)[C@H]1c1ccccc1C(F)(F)F" as well.
Ans. + (<100)

Qu. "COc1ncc(C2CCC2)cc1CO[C@H]1[C@H](C(C)(C)C)[C@@H](C(=O)O)N(C(=O)[C@@H]2CCCO2)[C@H]1c1cccnc1OC(C)C" ?
Ans. ++ (≥100 and <200)

Qu. Quick one: "COc1ccc(C(C)(C)C)cc1CO[C@H]1[C@H](C(C)(C)C)[C@@H](C(=O)O)N(C(=O)[C@@H]2CCCO2)[C@H]1c1ccccc1C"
Ans. +++ (≥200)

Qu. Input "COc1ncc(Br)cc1CO[C@H]1[C@H](C(C)(C)C)[C@@H](C(=O)O)N(C(=O)OC(C)C)[C@H]1c1ccccc1"
Ans. ++ (≥100 and <200)

Qu. Now give it for "COc1ncc(C(F)(F)F)cc1CO[C@H]1[C@H](C(C)(C)C)[C@@H](C(=O)O)N(C(=O)[C@@H]2CCCCO2)[C@H]1c1ccccc1-c1cncnc1" too.
Ans. + (<100)

Qu. Same for "COc1ccc(C(F)(F)F)cc1CO[C@H]1[C@H](C(C)(C)C)[C@@H](C(=O)O)N(C(=O)[C@@H]2CCCCO2)[C@H]1c1ccccc1C"
Ans. +++ (≥200)

Qu. # repeat for "COc1ncc(Br)cc1CO[C@H]1[C@H](C(C)(C)C)[C@@H](C(=O)O)N(C(=O)[C@@H]2CCCO2)[C@H]1c1ccccc1C1CC1"
Ans. +++ (≥200)

Qu. // same read-out, input: "COc1ccc(C(F)(F)F)cc1CO[C@H]1[C@H](C(C)(C)C)[C@@H](C(=O)O)N(C(=O)OC(C)C)[C@H]1c1cccnc1OC(C)C"
Ans. ++ (≥100 and <200)

Qu. Entry "COc1ncc(C2CCC2)cc1CO[C@H]1[C@H](C(C)(C)C)[C@@H](C(=O)O)N(S(=O)(=O)c2cccc3ccccc23)[C@H]1c1cccnc1OC(C)C" please
Ans. + (<100)
